Value source: paper PMC6253875

assayed-target: falcipain-3 (Plasmodium falciparum, UniProt Q8IIL0)
Construct: made in house; host or cells: E. coli
Sequence (Q8IIL0 243-492): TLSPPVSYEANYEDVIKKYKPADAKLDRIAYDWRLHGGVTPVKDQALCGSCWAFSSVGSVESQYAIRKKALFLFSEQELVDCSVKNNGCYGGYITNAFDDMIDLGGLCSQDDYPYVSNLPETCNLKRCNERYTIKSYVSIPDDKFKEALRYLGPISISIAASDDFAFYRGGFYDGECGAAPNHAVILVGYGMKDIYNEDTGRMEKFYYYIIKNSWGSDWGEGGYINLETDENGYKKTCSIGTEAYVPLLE
measurement-notes: Inhibition of recombinant falcipain-3, fluorometric microplate assay (Cbz-Leu-Arg-AMC)
Type: biochemical
setup-conditions: recombinant falcipain-3; ni = no inhibition; read-out: FP-3 IC50
Experimental: Recombinant falcipain-2 and falcipain-3 were produced as previously described. Inhibitory activities against recombinant falcipain-2 and falcipain-3 were evaluated in fluorometric microplate assays using the substrates Cbz-Phe-Arg-AMC and Cbz-Leu-Arg-AMC (AMC, 7-amino-4-methyl-coumarin). […] IC50 values for inhibition of falcipain-2 and falcipain-3 were determined as described previously using the fluorogenic substrates Cbz-Phe-Arg-AMC and Cbz-Leu-Arg-AMC, respectively (AMC, 7-amino-4 methylcoumarin). […]
For each record, check the reported IC50: if it is below 200 µM write 1.0, else write 0.0.

// below: answered compounds
C=C(CC)C(=O)c1ccc(OCC(=O)NCCCC)c(Cl)c1Cl : 1.0
C=C(CC)C(=O)c1ccc(OCC(=O)N[C@@H](C)C(=O)OCc2ccccc2)c(Cl)c1Cl : 1.0
C=C(CC)C(=O)c1ccc(OCC(=O)OCC)c(Cl)c1 : 0.0
CC(C)C[C@H](NC(=O)[C@H]1O[C@@H]1C(=O)O)C(=O)NCCCCN=C(N)N [E-64, reference compound] : 1.0
C=C(CC)C(=O)c1ccc(OCC(=O)N2CCOCC2)c(Cl)c1Cl : 0.0
C=C(CC)C(=O)c1ccc(OCC(=O)NCCCCCC(=O)O)c(Cl)c1Cl : 1.0
C=C(CC)C(=O)c1ccc(OCC(=O)NC(C)(C)C)c(Cl)c1Cl : 1.0
C=C(CC)C(=O)c1ccc(OCC(=O)NCCCCCC)c(Cl)c1Cl : 1.0

Now take the following compound into account.
Query: Field: below-cutoff. Rule: recorded IC50 strictly less than 200 µM. Subject: C=C(CC)C(=O)c1ccc(OCC(=O)Nc2ccccc2)c(Cl)c1Cl
Response: 1.0

====

assayed-target: falcipain-2 (Plasmodium falciparum)
Construct: made in house; host or cells: E. coli
Sequence (Q8I6U4 244-484): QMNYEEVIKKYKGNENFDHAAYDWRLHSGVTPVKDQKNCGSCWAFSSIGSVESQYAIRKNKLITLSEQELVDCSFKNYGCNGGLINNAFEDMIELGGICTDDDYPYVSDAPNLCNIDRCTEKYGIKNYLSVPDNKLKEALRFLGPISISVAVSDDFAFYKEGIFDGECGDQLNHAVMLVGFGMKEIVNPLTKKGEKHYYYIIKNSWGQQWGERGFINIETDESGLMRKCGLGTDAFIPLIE
measurement-notes: Inhibition of recombinant falcipain-2, fluorometric microplate assay (Cbz-Phe-Arg-AMC)
Assay type: biochemical
setup-conditions: recombinant falcipain-2; values marked ^a: only one experiment; ni = no inhibition; read-out: FP-2 IC50
measured-metric: pIC50
Please treat pIC50 as minus the base-10 logarithm of the molar concentration.

Example results:
C=C(CC)C(=O)c1ccc(OCC(=O)NCc2ccccc2)c(Cl)c1Cl [Compound 11] : 3.48
CCC(C)C(=O)c1ccc(OCC(=O)O)c(Cl)c1Cl (stereo not drawn) [Compound 25] : 3.27
C=C(CC)C(=O)c1ccc(OCC(=O)NCCCCCCNC(=O)CCCCC2SCC3NC(=O)NC32)c(Cl)c1Cl (stereo not drawn) [Compound 24] : 5.52
C=C(CC)C(=O)c1ccc(OCC(=O)NCCCCCC)c(Cl)c1Cl [Compound 21] : 3.74
C=C(CC)C(=O)c1ccc(OCC(=O)N[C@@H](C)C(=O)OCc2ccccc2)c(Cl)c1Cl [Compound 10] : 3.75

Now look at this entry.
Query: I'd like to know its pIC50. The compound in question is CCCCNC(=O)COc1ccc(C(=O)CCC)c(Cl)c1Cl [Compound 27]
Response: 3.15

====

assayed-target: falcipain-3 (Plasmodium falciparum, UniProt Q8IIL0)
Construct: made in house; host or cells: E. coli
measurement-notes: Inhibition of recombinant falcipain-3, fluorometric microplate assay (Cbz-Leu-Arg-AMC)
Format: biochemical
measured-metric: IC50 (µM)
Only the number, expressed in µM, is required.

Query: I'd like to know its IC50. The compound in question is C=C(CC)C(=O)c1ccc(OCC(=O)N2CCN(CC)CC2)c(Cl)c1Cl
Response: 557
